Values compiled from PubChem BioAssay AID488969.

Recorded z-score by entry
assay-target: Metabotropic glutamate receptor 8 (Rattus norvegicus) (UniProt P70579)
Sequence (P70579 whole entry, looked up): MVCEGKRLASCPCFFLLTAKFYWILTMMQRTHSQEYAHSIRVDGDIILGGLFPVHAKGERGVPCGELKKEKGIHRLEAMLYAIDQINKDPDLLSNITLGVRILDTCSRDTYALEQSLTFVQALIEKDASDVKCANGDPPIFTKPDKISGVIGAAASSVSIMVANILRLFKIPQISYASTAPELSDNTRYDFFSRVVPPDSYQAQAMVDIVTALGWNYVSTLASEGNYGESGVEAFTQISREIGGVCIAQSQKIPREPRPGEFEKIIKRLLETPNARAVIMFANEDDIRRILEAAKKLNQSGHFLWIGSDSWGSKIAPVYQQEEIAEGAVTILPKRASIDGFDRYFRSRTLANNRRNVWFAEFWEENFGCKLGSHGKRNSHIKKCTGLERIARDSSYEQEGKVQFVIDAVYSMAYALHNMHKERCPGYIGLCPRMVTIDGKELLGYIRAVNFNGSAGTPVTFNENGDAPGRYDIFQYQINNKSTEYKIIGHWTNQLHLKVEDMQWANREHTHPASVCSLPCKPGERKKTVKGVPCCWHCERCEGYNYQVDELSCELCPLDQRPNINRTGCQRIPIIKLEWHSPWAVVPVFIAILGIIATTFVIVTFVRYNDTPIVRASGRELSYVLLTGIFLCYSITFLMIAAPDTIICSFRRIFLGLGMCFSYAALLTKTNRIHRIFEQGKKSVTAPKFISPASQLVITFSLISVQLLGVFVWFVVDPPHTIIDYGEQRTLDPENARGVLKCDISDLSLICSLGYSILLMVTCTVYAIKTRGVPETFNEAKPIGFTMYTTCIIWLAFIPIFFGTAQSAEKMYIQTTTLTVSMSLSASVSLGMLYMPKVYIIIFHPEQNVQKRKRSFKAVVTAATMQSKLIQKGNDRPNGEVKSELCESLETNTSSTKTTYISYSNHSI
assay-notes: mGluR8 Gi/Go-coupled signaling modulation – cell-based, rat, thallium flux, HTS, primary screen (AID 488969)
run-parameters: HEK293 rat mGluR8, GIRK (G protein-gated inwardly rectifying potassium channel) thallium flux, FluoZin2; at 10 µM; stronger effect = higher value; submaximal glutamate (EC20) added with thallium
Over roughly 110,000 compounds, “z-score” has its median near -0.1; the highest 2% begin near 2. Only a selection was taken, and the highest values are over-represented in it overall.

[
  {
    "molecule": "CN(CCO)c1ccc([N+](=O)[O-])cc1C(=O)O",
    "assay-target": "Metabotropic glutamate receptor 8 (Rattus norvegicus) (UniProt P70579)",
    "z-score": 0.404
  },
  {
    "molecule": "O=C1c2ccccc2OC2(C=Cc3ccccc3O2)N1Cc1ccccc1 (stereo not drawn)",
    "assay-target": "Metabotropic glutamate receptor 8 (Rattus norvegicus) (UniProt P70579)",
    "z-score": 0.198
  },
  {
    "molecule": "O=C(COC(=O)c1sc2ccccc2c1Cl)NC1CCCCC1",
    "assay-target": "Metabotropic glutamate receptor 8 (Rattus norvegicus) (UniProt P70579)",
    "z-score": -0.479
  },
  {
    "molecule": "CCOC(=O)c1ccc(NC(=S)Nc2ccccc2)cc1",
    "assay-target": "Metabotropic glutamate receptor 8 (Rattus norvegicus) (UniProt P70579)",
    "z-score": 1.7
  },
  {
    "molecule": "CC(C)c1ccc(S(=O)(=O)c2nnn3c2nc(N2CCCCC2)c2ccccc23)cc1",
    "assay-target": "Metabotropic glutamate receptor 8 (Rattus norvegicus) (UniProt P70579)",
    "z-score": -0.645
  },
  {
    "molecule": "COC(=O)c1ccccc1NC(=S)NC(=O)COc1ccc(C)cc1",
    "assay-target": "Metabotropic glutamate receptor 8 (Rattus norvegicus) (UniProt P70579)",
    "z-score": 2.28
  },
  {
    "molecule": "O=C1C2ON(c3ccccc3)C(c3ccncc3)C2C(=O)N1c1ccc(N2CCOCC2)cc1 (stereo not drawn)",
    "assay-target": "Metabotropic glutamate receptor 8 (Rattus norvegicus) (UniProt P70579)",
    "z-score": -0.522
  },
  {
    "molecule": "CCc1cccc(OCC(=O)Nc2ccc(S(=O)(=O)Nc3onc(C)c3C)cc2)c1",
    "assay-target": "Metabotropic glutamate receptor 8 (Rattus norvegicus) (UniProt P70579)",
    "z-score": -0.0589
  },
  {
    "molecule": "Cc1cccc(NC(=O)COc2ccc(Br)cc2)n1",
    "assay-target": "Metabotropic glutamate receptor 8 (Rattus norvegicus) (UniProt P70579)",
    "z-score": -0.0989
  },
  {
    "molecule": "O=c1c2ccccc2[nH]c(=S)n1Cc1cccs1",
    "assay-target": "Metabotropic glutamate receptor 8 (Rattus norvegicus) (UniProt P70579)",
    "z-score": 2.21
  },
  {
    "molecule": "O=C(NCC1CCCO1)c1sc2ccccc2c1Cl (stereo not drawn)",
    "assay-target": "Metabotropic glutamate receptor 8 (Rattus norvegicus) (UniProt P70579)",
    "z-score": -0.467
  },
  {
    "molecule": "CCCN(CC1CC1)C(=S)Nc1ccc(Oc2ccccc2)cc1",
    "assay-target": "Metabotropic glutamate receptor 8 (Rattus norvegicus) (UniProt P70579)",
    "z-score": 3.7
  },
  {
    "molecule": "CN1CC2=Cc3ccccc3OC23Oc2ccccc2C=C3C1",
    "assay-target": "Metabotropic glutamate receptor 8 (Rattus norvegicus) (UniProt P70579)",
    "z-score": 2.01
  },
  {
    "molecule": "CS(=O)(=O)c1ccc(Sc2nc3ccccc3[nH]2)c([N+](=O)[O-])c1",
    "assay-target": "Metabotropic glutamate receptor 8 (Rattus norvegicus) (UniProt P70579)",
    "z-score": -0.102
  },
  {
    "molecule": "Cc1nn(-c2ccccc2)c(Cl)c1/C=C1\\SC(=S)NC1=O",
    "assay-target": "Metabotropic glutamate receptor 8 (Rattus norvegicus) (UniProt P70579)",
    "z-score": -0.842
  },
  {
    "molecule": "O=C(c1cc2nc(-c3ccco3)cc(C(F)(F)F)n2n1)N1CCN(Cc2ccccc2)CC1",
    "assay-target": "Metabotropic glutamate receptor 8 (Rattus norvegicus) (UniProt P70579)",
    "z-score": -0.1
  },
  {
    "molecule": "O=C1CC(SCc2nc3ccccc3[nH]2)C(=O)N1c1ccc(F)cc1 (stereo not drawn)",
    "assay-target": "Metabotropic glutamate receptor 8 (Rattus norvegicus) (UniProt P70579)",
    "z-score": 0.0187
  },
  {
    "molecule": "CCOc1ccc(C(CC(=O)O)NC(=O)c2sc3ccccc3c2Cl)cc1 (stereo not drawn)",
    "assay-target": "Metabotropic glutamate receptor 8 (Rattus norvegicus) (UniProt P70579)",
    "z-score": -0.958
  },
  {
    "molecule": "Cc1ccc(OCC(=O)NC(=S)Nc2cccc(C)n2)cc1",
    "assay-target": "Metabotropic glutamate receptor 8 (Rattus norvegicus) (UniProt P70579)",
    "z-score": 1.99
  },
  {
    "molecule": "C=CCOc1ccc(CNn2c(C)n[nH]c2=S)cc1OC",
    "assay-target": "Metabotropic glutamate receptor 8 (Rattus norvegicus) (UniProt P70579)",
    "z-score": 0.17
  },
  {
    "molecule": "CC1(c2ccccc2)CC(C)(C)N2C(=O)C3(C(C#N)=C(N)Oc4cc(O)ccc43)c3cccc1c32 (stereo not drawn)",
    "assay-target": "Metabotropic glutamate receptor 8 (Rattus norvegicus) (UniProt P70579)",
    "z-score": -0.217
  },
  {
    "molecule": "CCOc1ccc(C(C)=O)cc1COC(=O)C1=COCCO1",
    "assay-target": "Metabotropic glutamate receptor 8 (Rattus norvegicus) (UniProt P70579)",
    "z-score": -1.15
  },
  {
    "molecule": "CCCS(=O)(=O)N1CCCC(C(=O)NC2CCCCC2)C1 (stereo not drawn)",
    "assay-target": "Metabotropic glutamate receptor 8 (Rattus norvegicus) (UniProt P70579)",
    "z-score": 0.0604
  },
  {
    "molecule": "CCOC(=S)NC(=O)c1sc2ccccc2c1Cl",
    "assay-target": "Metabotropic glutamate receptor 8 (Rattus norvegicus) (UniProt P70579)",
    "z-score": 11.1
  },
  {
    "molecule": "Cc1ccccc1N1CCN(C(=O)CCN2C(=O)c3ccccc3C2=O)CC1",
    "assay-target": "Metabotropic glutamate receptor 8 (Rattus norvegicus) (UniProt P70579)",
    "z-score": -0.36
  },
  {
    "molecule": "Cc1ccc(OCC(=O)NC(=S)Nc2ccc(Br)c(C)n2)cc1",
    "assay-target": "Metabotropic glutamate receptor 8 (Rattus norvegicus) (UniProt P70579)",
    "z-score": 1.02
  },
  {
    "molecule": "O=C(O)c1ccccc1C(=O)Nc1n[nH]c(=S)s1",
    "assay-target": "Metabotropic glutamate receptor 8 (Rattus norvegicus) (UniProt P70579)",
    "z-score": -0.153
  },
  {
    "molecule": "CCCC(=O)NC(=S)Nc1ccccc1C(=O)OC",
    "assay-target": "Metabotropic glutamate receptor 8 (Rattus norvegicus) (UniProt P70579)",
    "z-score": 0.0764
  },
  {
    "molecule": "CCC(=O)NC(=S)Nc1ccc(NC(=O)COc2ccccc2)cc1",
    "assay-target": "Metabotropic glutamate receptor 8 (Rattus norvegicus) (UniProt P70579)",
    "z-score": 0.0565
  },
  {
    "molecule": "COc1ccc(CCNC(=S)Nc2ccc(C)cc2C)cc1",
    "assay-target": "Metabotropic glutamate receptor 8 (Rattus norvegicus) (UniProt P70579)",
    "z-score": -0.0431
  },
  {
    "molecule": "CN(C(=S)Nc1ccc(Oc2ccccc2)cc1)C1CCCCC1",
    "assay-target": "Metabotropic glutamate receptor 8 (Rattus norvegicus) (UniProt P70579)",
    "z-score": 0.0776
  },
  {
    "molecule": "NC(N)=NS(=O)(=O)c1ccc(NC(=S)NC(=O)c2sc3ccccc3c2Cl)cc1",
    "assay-target": "Metabotropic glutamate receptor 8 (Rattus norvegicus) (UniProt P70579)",
    "z-score": 0.0467
  },
  {
    "molecule": "CCCCN(C)C(=S)Nc1ccc(Oc2ccccc2)cc1",
    "assay-target": "Metabotropic glutamate receptor 8 (Rattus norvegicus) (UniProt P70579)",
    "z-score": 1.42
  },
  {
    "molecule": "O=c1c2cc(Cl)ccc2[nH]c(=S)n1Cc1ccccn1",
    "assay-target": "Metabotropic glutamate receptor 8 (Rattus norvegicus) (UniProt P70579)",
    "z-score": 1.21
  },
  {
    "molecule": "O=C(CCn1c(=S)[nH]c2ccccc2c1=O)N1CCOCC1",
    "assay-target": "Metabotropic glutamate receptor 8 (Rattus norvegicus) (UniProt P70579)",
    "z-score": 0.695
  },
  {
    "molecule": "Brc1ccc(-c2csc(-c3ccncc3)n2)cc1",
    "assay-target": "Metabotropic glutamate receptor 8 (Rattus norvegicus) (UniProt P70579)",
    "z-score": 0.161
  },
  {
    "molecule": "CC(C)NS(=O)(=O)c1ccc(CCC(=O)Nc2ccc3c(c2)OCO3)cc1",
    "assay-target": "Metabotropic glutamate receptor 8 (Rattus norvegicus) (UniProt P70579)",
    "z-score": -0.224
  },
  {
    "molecule": "CN1CCN(C(=O)NC2CCCCC2)CC1",
    "assay-target": "Metabotropic glutamate receptor 8 (Rattus norvegicus) (UniProt P70579)",
    "z-score": -0.173
  },
  {
    "molecule": "CCOC(=O)c1ccc(NC(=S)NC(=O)COc2ccccc2)cc1",
    "assay-target": "Metabotropic glutamate receptor 8 (Rattus norvegicus) (UniProt P70579)",
    "z-score": 3.05
  },
  {
    "molecule": "C=CCc1c(C)nc(C)nc1N/N=C/c1ccc(F)cc1",
    "assay-target": "Metabotropic glutamate receptor 8 (Rattus norvegicus) (UniProt P70579)",
    "z-score": -0.164
  },
  {
    "molecule": "O=C(NC(=S)N(CCCCO)C1CCCCC1)c1sc2ccccc2c1Cl",
    "assay-target": "Metabotropic glutamate receptor 8 (Rattus norvegicus) (UniProt P70579)",
    "z-score": 9.88
  },
  {
    "molecule": "CCCCOC(=S)NC(=O)c1sc2ccccc2c1Cl",
    "assay-target": "Metabotropic glutamate receptor 8 (Rattus norvegicus) (UniProt P70579)",
    "z-score": 17.3
  },
  {
    "molecule": "Cc1ccccc1NC(=O)COC(=O)CNC(=O)c1sc2ccccc2c1Cl",
    "assay-target": "Metabotropic glutamate receptor 8 (Rattus norvegicus) (UniProt P70579)",
    "z-score": -1.08
  }
]
